meta.source: paper PMC5540273

Tested on: NEK9
Settings: concentration: 1 μM, replicates: in singlicate; n = 1;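 further: KINOMEscan kinase panel screen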
READOUT KIND: %Inh

Example entries begin here.
COMPOUND	RECORDED VALUE
O=c1cc(N2CCOCC2)nc2n(Cc3cccc(Cl)c3Cl)ccn12	27%
CN1C(=O)C(Nc2ccc(Cl)c(C(=O)O)c2)=C(c2ccc(Cl)cc2)C1=O	10%
CCn1c(-c2ccccn2)nc2cnccc21	0%
Fc1cc(Cl)ccc1Nc1ccnc2cc(-c3ccc(CN4CCCCC4)o3)ccc12	0%
COc1cc(Nc2nccc(N3CCC(NC(=O)Nc4cc(C)ccc4C)C3)n2)cc(OC)c1OC (stereo not shown)	32%
Cc1ccc(-c2cc(-c3c[nH]nc3-c3ccccn3)ccn2)cc1	0%
COC(=O)c1c(-c2ccccc2)c2cc(C(=O)O)ccc2c(=O)n1Cc1ccccc1	0%
Cc1cccc(-c2nc(Nc3ccc4[nH]ncc4c3)c3ccccc3n2)n1	0%
COc1ccccc1CNC(=O)c1cc(C(=O)c2ccccc2C)c[nH]1	15%
C[C@@H]1CCCCN1c1cc(-c2ccc3c(N)n[nH]c3c2)nc(N)n1	0%

Looking up CN(C)CCN(C)C(=O)c1cc(-c2ccncc2)c(-c2ccc(Cl)c(O)c2)o1.Cl.Cl , I see its %Inh listed as 0%

The reported %Inh of the compound Cc1c(Cn2ccn3c(=O)cc(N4CCOCC4)nc23)cccc1C(F)(F)F was 20%

Note to self: %Inh recorded for Cn1ccc2ncnc(Oc3cccc(C(=O)Nc4ccccc4)c3)c21 was 0%

* * *

Parameter: %Inh. Scope: all listed entries.
Tested on: MRCKB
Construct: gene CDC42BPB
Conditions: concentration: 1 μM, replicates: in singlicate; n = 1
Numbers only here, please. The scale is %.

CHEMICAL STRING	%Inh, %
Cc1csc(-c2nc(Nc3ccncc3)c3ccccc3n2)n1	44

Notebook: COC(=O)c1c(-c2ccccc2)c2cc(C(=O)O)ccc2c(=O)n1Cc1ccccc1 , %Inh read as 0

%Inh reading for Clc1cc(Cl)cc(Nc2ccnc(Nc3cc(Cl)cc(Cl)c3)n2)c1 : 6

%Inh recorded for this molecule, Cl.Oc1ccc(-c2nc(-c3ccccc3)[nH]c2-c2ccncc2)cc1 , is 2

Notebook: Fc1cc(Cl)ccc1Nc1ccnc2cc(I)ccc12 , %Inh read as 0

* * *

Test system: SYK
Conditions: concentration: 1 μM, replicates: in singlicate; n = 1
READOUT KIND: %Inh (%)
Please reply with the bare figure in % and do not write the unit itself.

Record excerpt, results attached:
COMPOUND	UNITS SYMBOL	%Inh
Cc1c(O)cccc1Nc1ccnc2ccc(C(F)(F)F)cc12.Cl	%	0
Cc1cc(NCC(c2ccccc2)c2ccccc2)nc(NCc2ccc(C(F)(F)F)cc2)n1	%	0
Cc1csc(-c2nc(Nc3ccncc3)c3ccccc3n2)n1	%	2
Nc1ncnc2[nH]c(-c3ccccc3)nc12	%	10

The reported %Inh value, SYK, for O=C(Nc1ccc2c(c1)OCO2)NC1CCN(c2ccnc(Nc3ccc(F)cc3)n2)C1 (centres unmarked) reads 16

* * *

The following compounds are listed with their measured %Inh values.
Test system: RSK4(Kin.Dom.1-N-terminal)
Construct: gene RPS6KA6
Conditions: concentration: 1 μM, replicates: in singlicate; n = 1
The response must be a number in % with no trailing unit.

These recorded examples may help you get a feel for the data.
CHEMICAL STRING	ASSAYED TARGET	UNITS SYMBOL	%Inh
O=c1cc(N2CCOCC2)nc2n(Cc3cccc(Cl)c3Cl)ccn12	RSK4(Kin.Dom.1-N-terminal)	%	0
COc1ccc(Nc2nccc(NCCNC(=O)Nc3ccccc3F)n2)cc1	RSK4(Kin.Dom.1-N-terminal)	%	0
CC(C)(C)c1ccc(C(=O)Nc2cn3cc(-c4cccnc4)ccc3n2)cc1	RSK4(Kin.Dom.1-N-terminal)	%	4
Cc1cc(-c2ccc3c(c2)CC[C@@H](N[C@@H](C)c2ccccc2)C3)cnc1N.Cl	RSK4(Kin.Dom.1-N-terminal)	%	23
CS(=O)(=O)c1ccc(-c2nc3n(c2-c2ccncc2)CCC3)cc1	RSK4(Kin.Dom.1-N-terminal)	%	0

The value of %Inh measured for the compound NC(=O)c1nnc2ccccc2c1N turned out to be 33

Recorded %Inh (compound Cc1cc(NCC(c2ccccc2)c2ccccc2)nc(NCc2ccc(C(F)(F)F)cc2)n1 ): 0

For C[C@@H]1CCCCN1c1cc(-c2ccc3c(N)n[nH]c3c2)nc(N)n1 the compound record lists %Inh as 0

For Cn1ccc2ncnc(Oc3ccc(NC(=O)Nc4ccccc4)cc3)c21 the compound record lists %Inh as 0

Record Fc1cccc(COc2nnc(-c3ccc4c(c3)CCO4)o2)c1 . Reported %Inh: 0

* * *

System: RSK1(Kin.Dom.2-C-terminal)
Construct: gene RPS6KA1
Conditions: concentration: 1 μM, replicates: in singlicate; n = 1
Overview of reported %Inh across a group of compounds:
Just the number please, in %, no unit attached.

// known answers, use as guide
COMPOUND	ASSAYED TARGET	UNITS SYMBOL	%Inh
COc1cc(Nc2nccc(N3CCC(NC(=O)Nc4cc(C)ccc4C)C3)n2)cc(OC)c1OC (stereo not drawn)	RSK1(Kin.Dom.2-C-terminal)	%	0
O=C(Nc1n[nH]c2cc(-c3cccc(F)c3F)ccc12)C1CC1	RSK1(Kin.Dom.2-C-terminal)	%	6
COC(=O)c1c(-c2ccccc2)c2cc(C(=O)O)ccc2c(=O)n1Cc1ccccc1	RSK1(Kin.Dom.2-C-terminal)	%	18

%Inh reported for this compound O=C(Nc1n[nH]c2nc(-c3nccs3)c(Br)cc12)C1CC1 : 0

// field: %Inh; key: CCn1c(-c2cccnc2O)nc2cnccc21 ; value = 0

%Inh for Nc1nc(-c2nccs2)c(-c2ccnc3ccccc23)s1 is 0

%Inh recorded for this compound, Cc1cccc(-c2nc(Nc3ccncc3)c3ccccc3n2)n1 , is 8

The measured %Inh associated with COC(=O)c1c(-c2ccccc2)c2cc(OC)ccc2c(=O)n1Cc1ccccc1 reads 18

%Inh for O=C1NC(=O)C(N2CCc3ccccc32)=C1c1ccccc1Cl is 14

* * *

Tested on: SgK110
Conditions: concentration: 1 μM, replicates: in singlicate; n = 1
READOUT KIND: %Inh (%)
Give just the number in %; leave the unit off.

Known %Inh results, listed for orientation:
COMPOUND	%Inh [%]
CC(C)(C)c1ccc(C(=O)Nc2cn3cc(-c4cccnc4)ccc3n2)cc1	0
COc1cc(Nc2nccc(N3CCC(NC(=O)Nc4cc(C)ccc4C)C3)n2)cc(OC)c1OC (stereo not drawn)	0
CS(=O)(=O)c1ccc(-c2nc3n(c2-c2ccncc2)CCC3)cc1	0
Cc1cccc(-c2nc(Nc3cccc(C(N)=O)c3)c3ccccc3n2)n1	41
O=C(Nc1ccc2c(c1)OCO2)NC1CCN(c2ccnc(Nc3ccc(F)cc3)n2)C1 (stereo not drawn)	14
Cl.NC(=O)c1cccc(Nc2nccc(Nc3ccc(Oc4cccc(Cl)c4)c(Cl)c3)n2)c1	0
O=C(Nc1n[nH]c2nc(-c3nccs3)c(Br)cc12)C1CC1	4
Cc1c(Cn2ccn3c(=O)cc(N4CCOCC4)nc23)cccc1C(F)(F)F	0

compound Cc1cccc(-c2nc(Nc3ccc4[nH]ncc4c3)c3ccccc3n2)n1 , %Inh observed: 0

Entry O=C(Nc1n[nH]c2nc(-c3nccs3)c(Br)cc12)C1CCCC1 — recorded %Inh = 0

Form: compound = Clc1cc(Cl)cc(Nc2ccnc(Nc3cc(Cl)cc(Cl)c3)n2)c1 ; %Inh = 0

Please fill in: %Inh reported for COc1cc2nccc(Nc3ccc(NC(=O)c4ccc(C)cc4)c(O)c3)c2cc1OC.Cl = 0

Given item Cc1cc(N2Cc3ccccc3C2)nc(Nc2ccc(S(=O)(=O)N3CCOCC3)cc2)n1.Cl , the value recorded as its %Inh is 0

Quick note, %Inh for Nc1nc(-c2nccs2)c(-c2ccnc3ccccc23)s1 landed at 13

* * *

Tested on: ALK
Settings: concentration: 1 μM, replicates: in singlicate; n = 1
Listed next: entries and their corresponding %Inh.
Answer in %, number only, no unit symbol.

Noted %Inh for COC(=O)c1c(-c2ccccc2)c2cc(OC)ccc2c(=O)n1Cc1ccccc1 , tested on ALK: 28

Tested on ALK, the item CCn1c(-c2ccccn2)nc2cnccc21 [SB-736398] showed %Inh equal to 34

I looked up COc1cc(Nc2nccc(N3CCC(NC(=O)Nc4cc(C)ccc4C)C3)n2)cc(OC)c1OC (stereo not shown) [GSK1379762] and its %Inh for ALK was 45

Form field %Inh for item COc1cccc(NC(=O)NC2CCN(c3ccnc(Nc4ccc(F)cc4)n3)C2)c1 (stereo not shown) [GSK1379721] on ALK: 24

Observed %Inh on ALK, entry Cc1csc(-c2nc(Nc3ccncc3)c3ccccc3n2)n1 [GW869640] , equals 43

Tested on ALK, the item COc1ccccc1CNC(=O)c1cc(C(=O)c2ccccc2C)c[nH]1 [GSK364507] showed %Inh equal to 21

ALK assay, molecule O=C(Nc1ccc2c(c1)OCO2)NC1CCN(c2ccnc(Nc3ccc(F)cc3)n2)C1 (stereo not shown) [GSK1379724] , recorded %Inh = 29

// returns %Inh for Cn1cncc1-c1ccc2ncnc(Nc3ccc(OCc4ccccc4)cc3)c2c1 [GW320571] with ALK; value = 21

ALK %Inh of Cl.c1ccc(-c2n[nH]cc2-c2ccnc(-c3ccc(CN4CCOCC4)cc3)c2)nc1 [GW776245] is 0

ALK %Inh of Cc1ccc(-c2cc(-c3c[nH]nc3-c3ccccn3)ccn2)cc1 [GW684088] is 16
